system: Pseudomonas aeruginosa; assay: Antibacterial activity against Pseudomonas aeruginosa ATCC 27853 by disc diffusion method; type: functional; further: test concentration or dose not given here

MOLECULE: CCCc1nn2c(=O)c3c4c(sc3nc2s1)CCCC4
inhibition zone (IZ), mm: 22
//
MOLECULE: Cc1cccc(-c2nn3c(=O)c4c5c(sc4nc3s2)CCCC5)c1
inhibition zone (IZ), mm: 20
//
MOLECULE: CCc1nn2c(=O)c3c4c(sc3nc2s1)CCCC4
inhibition zone (IZ), mm: 18
//
MOLECULE: O=c1c2c3c(sc2nc2sc(Cc4ccccc4)nn12)CCCC3
inhibition zone (IZ), mm: 10
//
MOLECULE: Nn1c(SCC(=O)c2ccc(O)c(O)c2)nc2sc3c(c2c1=O)CCCC3
inhibition zone (IZ), mm: 16
//
MOLECULE: Nn1c(SCC(=O)c2cc3ccccc3oc2=O)nc2sc3c(c2c1=O)CCCC3
inhibition zone (IZ), mm: 8
//
MOLECULE: COc1ccc(C(=O)CSc2nc3sc4c(c3c(=O)n2N)CCCC4)cc1
inhibition zone (IZ), mm: 8
//
MOLECULE: CN[C@@H]1[C@H](O[C@H]2[C@H](O[C@H]3[C@H](O)[C@@H](O)[C@H](N=C(N)N)[C@@H](O)[C@@H]3N=C(N)N)O[C@@H](C)[C@]2(O)C=O)O[C@@H](CO)[C@H](O)[C@H]1O (stereo in doubt) [STREPTOMYCIN]
inhibition zone (IZ), mm: 24
//
MOLECULE: O=c1c2c3c(sc2nc2sc(-c4ccccc4)nn12)CCCC3
inhibition zone (IZ), mm: 18
//
MOLECULE: Nn1c(SCC(=O)c2ccccc2)nc2sc3c(c2c1=O)CCCC3
inhibition zone (IZ), mm: 8
//
MOLECULE: Cc1cc(C)cc(-c2nn3c(=O)c4c5c(sc4nc3s2)CCCC5)c1
inhibition zone (IZ), mm: 18
//
MOLECULE: Nn1c(SCC(=O)c2ccnc(Cl)c2)nc2sc3c(c2c1=O)CCCC3
inhibition zone (IZ), mm: 8
//
MOLECULE: Nn1c(SCC(=O)c2ccc(Cl)cc2)nc2sc3c(c2c1=O)CCCC3
inhibition zone (IZ), mm: 18
//
MOLECULE: O=c1c2c3c(sc2nc2sc(-c4ccc([N+](=O)[O-])cc4)nn12)CCCC3
inhibition zone (IZ), mm: 9
//
MOLECULE: Cc1nn2c(=O)c3c4c(sc3nc2s1)CCCC4
inhibition zone (IZ), mm: 22
//
MOLECULE: O=c1c2c3c(sc2nc2sc(-c4cc(Cl)cc(Cl)c4)nn12)CCCC3
inhibition zone (IZ), mm: 8

Source: ChEMBL document CHEMBL1146350
